Source of measurements: ChEMBL document CHEMBL1201862

Provide the reported GI50 of each item.
# Test system: HOP-62
# MEASUREMENT DESCRIPTION: NCI tumour cell line growth inhibition, 48 h
Active and inactive are the calls of the source. Rule as the data show it: active = GI50 up to about 1.1 µM and inactive = higher.

*Q* Retrieve GI50 measured for C=C1C2CC3CCC2C(OC(=O)c2ccccc2C(=O)O)C13 (centres undefined) and print it.
*A* > 100 µM (inactive)

*Q* Retrieve GI50 measured for CC(=O)Oc1ccc2c3c1O[C@H]1[C@H](O)CC[C@@]4(O)[C@@H](C2)N(C)CC[C@]314 and print it.
*A* > 100 µM (inactive)

*Q* Retrieve GI50 measured for O=C1c2c(nc3ccccc3c2-c2ccccc2)CN1Nc1ccccc1 and print it.
*A* 53.8 µM (inactive)

*Q* Retrieve GI50 measured for Cc1cccc2c1c(=O)c1c(O)cc(O)cc1n2C and print it.
*A* > 100 µM (inactive)

*Q* Retrieve GI50 measured for CCOC(=O)c1nc2ccccc2nc1Nc1ccc(Cl)c(Cl)c1 and print it.
*A* 30.4 µM (inactive)

*Q* Retrieve GI50 measured for NC1CC(n2ccc(=O)[nH]c2=O)OC1C(O)CO (centres undefined) and print it.
*A* > 100 µM (inactive)

*Q* Retrieve GI50 measured for COc1ccc(/C=c2\sc3n(c2=O)C(N)=C(C#N)C(c2ccc(OC)cc2)C=3c2nc3ccccc3[nH]2)cc1 (centres undefined) and print it.
*A* 38.7 µM (inactive)

*Q* Retrieve GI50 measured for N#CC1=C(c2ccccc2)C(O)(c2ccccc2)NC1=O (centres undefined) and print it.
*A* > 100 µM (inactive)

*Q* Retrieve GI50 measured for Cc1cc2nc3[nH]c4c(Cl)cc(Cl)cc4c3nc2cc1C and print it.
*A* > 100 µM (inactive)
